Answer each item with its documented Ki.
# TESTED SYSTEM: JNK3 (Homo sapiens, UniProt P53779)
# Construct: One such construct encodes amino acid residues Ser40-Glu402 of JNK3α1 and is preceded by Met and Gly residues; Met-Gly (initiation methionine plus glycine added for the NcoI site)
# Sequence (P53779 40-402): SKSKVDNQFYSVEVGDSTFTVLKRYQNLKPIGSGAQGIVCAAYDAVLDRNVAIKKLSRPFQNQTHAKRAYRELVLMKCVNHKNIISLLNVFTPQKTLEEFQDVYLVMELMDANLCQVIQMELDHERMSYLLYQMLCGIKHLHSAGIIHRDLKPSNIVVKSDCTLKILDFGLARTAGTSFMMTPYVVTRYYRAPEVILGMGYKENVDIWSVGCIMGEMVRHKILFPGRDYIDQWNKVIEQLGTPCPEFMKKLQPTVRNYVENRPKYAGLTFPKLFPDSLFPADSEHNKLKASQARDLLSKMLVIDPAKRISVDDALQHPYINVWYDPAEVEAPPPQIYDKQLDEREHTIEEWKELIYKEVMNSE
# PROTOCOL NOTES: JNK inhibition assay: spectrophotometric coupled-enzyme assay with activated JNK3
# CONDITION NOTES: activated JNK3 10 nM, 10 μM ATP, 200 μM EGF receptor peptide, 30° C., competitive inhibition model

Qu. For the molecule Cc1cc2c(cc1C(=O)c1ccccc1)/C(=N/O)C(=O)N2Cc1cc(F)cc2c1OCOC2 [Compound 351] , what Ki is on record?
Ans. ≥ 1000 nM

Qu. For the molecule COc1ccc2c(CN3C(=O)/C(=N/O)c4ccc(CBr)cc43)cc(=O)oc2c1 [Compound 188] , what Ki is on record?
Ans. ≥ 1000 nM

Qu. For the molecule O=C1/C(=N\O)c2cc(Br)ccc2N1Cc1ccc([N+](=O)[O-])cc1 [Compound 25] , what Ki is on record?
Ans. ≥ 1000 nM

Qu. For the molecule CCCCc1cccc2c1/C(=N/O)C(=O)N2Cc1cc(F)cc2c1OCOC2 [Compound 337] , what Ki is on record?
Ans. < 1000 nM

Qu. For the molecule COc1cc(CN2C(=O)/C(=N\O)c3c(-c4ccccc4)cccc32)cc(OC)c1 [Compound 200] , what Ki is on record?
Ans. ≥ 1000 nM

Qu. For the molecule CCS(=O)(=O)Nc1ccc2c(c1)N(Cc1cc(F)cc3c1OCOC3)C(=O)/C2=N\O [Compound 263] , what Ki is on record?
Ans. < 1000 nM

Qu. For the molecule O=C(Nc1ccc2c(c1)N(Cc1cc(F)cc3c1OCOC3)C(=O)/C2=N/O)c1cccc(Oc2ccccc2)c1 [Compound 320] , what Ki is on record?
Ans. ≥ 1000 nM

Qu. For the molecule O=C1/C(=N\O)c2cc(Cl)ccc2N1Cc1cccc(F)c1 [Compound 50] , what Ki is on record?
Ans. ≥ 1000 nM

Qu. For the molecule O=C(Cc1ccccc1F)Nc1ccc2c(c1)N(Cc1cc(F)cc3c1OCOC3)C(=O)/C2=N\O [Compound 220] , what Ki is on record?
Ans. < 1000 nM

Qu. For the molecule O=C1/C(=N\O)c2cc(NCc3ccc(O)cc3)ccc2N1Cc1cc(F)cc2c1OCOC2 [Compound 304] , what Ki is on record?
Ans. ≥ 1000 nM

Qu. For the molecule Cc1cc(Cl)cc2c1N(Cc1ccc(S(C)(=O)=O)cc1)C(=O)/C2=N\O [Compound 101] , what Ki is on record?
Ans. ≥ 1000 nM

Qu. For the molecule Cc1cccc(CN2C(=O)/C(=N\O)c3cc([N+](=O)[O-])ccc32)c1 [Compound 34] , what Ki is on record?
Ans. ≥ 1000 nM

Qu. For the molecule O=C1/C(=N\O)c2ccc(-c3ccc(F)cc3F)cc2N1Cc1cc(F)cc2c1OCOC2 [Compound 313] , what Ki is on record?
Ans. < 1000 nM

Qu. For the molecule COc1cc(CN2C(=O)/C(=N\O)c3c(Br)cccc32)cc(OC)c1 [Compound 199] , what Ki is on record?
Ans. < 1000 nM

Qu. For the molecule COc1ccc2c(c1)N(Cc1cc(F)cc3c1OCOC3)C(=O)/C2=N\O [Compound 156] , what Ki is on record?
Ans. < 1000 nM

Qu. For the molecule O=C1/C(=N\O)c2cc(Br)ccc2N1Cc1ccc(F)cc1 [Compound 24] , what Ki is on record?
Ans. ≥ 1000 nM

Qu. For the molecule O=C1/C(=N\O)c2cc(Br)ccc2N1Cc1ccccc1 [Compound 23] , what Ki is on record?
Ans. ≥ 1000 nM

Just for reference, patent US7612065B2 is where these values come from.
